The reported numbers originate from the Human Domainome abundance scans (Beltran et al. 2025).

B1: Histone-lysine N-methyltransferase SETD2, residues 2382 to 2430; numbered along this chain, Q9BYW2 (parent)
chain: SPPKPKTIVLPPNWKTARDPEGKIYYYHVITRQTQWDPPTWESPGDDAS

Variants of: B1
runDescription: abundance fitness (aPCA) (normalised: wild type 0, dead -1); higher = more abundant; growth selection in yeast, the domain comes from the species named
measurementContext: Homo sapiens
We use -0.1 as the dividing line for abundance fitness: on or above the line is 1 (yes), below is 0 (no).

>>> answerlabel("V29S")
"1 (yes)"
>>> answerlabel("T7P")
"0 (no)"
>>> answerlabel("N13Y")
"1 (yes)"
>>> answerlabel("I24A")
"0 (no)"
>>> answerlabel("P2N")
"1 (yes)"

Would you say "V29G" shows abundance fitness at minimum -0.1? 0 (no)

Same lookup for "P3A" , please. 0 (no)
